# assay_target: Bcl-xL, Q07817
# Sequence (Q07817 1-209): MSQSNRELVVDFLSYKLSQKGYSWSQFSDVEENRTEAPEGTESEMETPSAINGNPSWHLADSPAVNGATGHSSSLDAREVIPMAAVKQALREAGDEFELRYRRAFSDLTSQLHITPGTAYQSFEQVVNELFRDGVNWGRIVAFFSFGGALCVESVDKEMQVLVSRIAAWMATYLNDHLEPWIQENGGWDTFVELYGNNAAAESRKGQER
# assay_method_text: peptide SPOT array, c-Myc-tagged receptor at 1 uM or 100 nM, anti-c-Myc-Cy3
Below is a list of entries, each paired with its recorded SPOT signal as a fraction of Bim BH3's signal on the same receptor and array value.
Lab note: record just the number, no unit beside it.

# binder, data_value
rows = [
    ("DFEARKAAIEIARLAERAQQKTLTSA [C4orf22]", 0.04),
    ("ELLRLRQHWKLRKVLDKILGDLSYRS [MED17]", 0.46),
    ("AALFLHAGCQLLTAGEDGKVQVWSGS [TEP1]", 0.02),
]

Record ELLYGIWSNCLGLILDSFHMFFDSTA [SLC30A7] , field SPOT signal as a fraction of Bim BH3's signal on the same receptor and array: 0.07

Record VTQLRSLVIDLERTAKELDTNTLKNA [TRIM40] , field SPOT signal as a fraction of Bim BH3's signal on the same receptor and array: 0.03

Record LVNIRKDTLRLVKCAEEVKSPGEEAS [RNF157] , field SPOT signal as a fraction of Bim BH3's signal on the same receptor and array: 0.03
